Molecular target: HEPN domain of sacsin (GST-HEPN) (Homo sapiens)
Construct: The HEPN domain (residues 4441–4579) was purified as in Kozlov et al; made in house; host or cells: E. coli BL21
Sequence (Q9NZJ4 4441-4579): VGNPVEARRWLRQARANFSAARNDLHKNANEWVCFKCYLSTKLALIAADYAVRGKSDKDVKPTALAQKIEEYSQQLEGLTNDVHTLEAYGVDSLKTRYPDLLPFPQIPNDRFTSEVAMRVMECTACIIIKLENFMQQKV
Experiment: FP competition assay (displacement of F12-ATP from GST-HEPN)
Type: binding
Conditions: 5 nM F12-ATP and 120 nM GST-HEPN; read-out: affinity for GST-HEPN estimated from FP competition curve, Kd
Label t when Kd is strictly below 5 µM; otherwise label f.

{"Compound": "CC(C)(COP(=O)(O)OP(=O)(O)OC[C@H]1O[C@@H](n2cnc3c(N)ncnc32)[C@H](O)[C@@H]1OP(=O)(O)O)[C@@H](O)C(=O)NCCC(=O)NCCS", "Label": "f"}
{"Compound": "Nc1ncnc2c1ncn2[C@@H]1O[C@H](COP(=O)(O)OP(=O)(O)OP(=O)(O)OP(=O)(O)OC[C@H]2O[C@@H](n3cnc4c(N)ncnc43)[C@H](O)[C@@H]2O)[C@@H](O)[C@H]1O [Ap4A, p1,-p4-di(adenosine-5´) tetraphosphate]", "Label": "f"}
{"Compound": "Nc1nc2c(ncn2[C@@H]2O[C@H](COP(=O)(O)OP(=O)(O)OP(=O)(O)OP(=O)(O)O)[C@@H](O)[C@H]2O)c(=O)[nH]1 [G-tetra-P, guanosine 5´-tetraphosphate]", "Label": "t"}
{"Compound": "Nc1nc2c(ncn2[C@@H]2O[C@H](COP(=O)(O)OP(=O)(O)OP(=O)(O)O)[C@@H](O)[C@H]2O)c(=O)[nH]1 [GTP, guanosine 5´-triphosphate]", "Label": "t"}
{"Compound": "Nc1ncnc2c1ncn2C1OC(COP(=O)(O)OP(=O)(O)OCC2OC(O)C(O)C2O)C(O)C1O (centres unmarked)", "Label": "f"}
